# System: K-562 leukemia
# PROCEDURE_TEXT: NCI tumour cell line growth inhibition, 48 h
As shown below, each of these molecules has a reported GI50 value.

>  <MOLECULE>
CC1=C2[C@@H](CC1)[C@]1(C)O[C@@](c3ccccc3)(C[C@H]1OC(=O)CO)[C@H]2OC(=O)/C=C/c1ccccc1

>  <GI50>
14 µM

$$$$
>  <MOLECULE>
O=C(Nc1ccc(OCc2nnc(-c3ccc(Cl)cc3)o2)c(F)c1)Nc1ccc(Cl)c(C(F)(F)F)c1

>  <GI50>
2.94 µM

$$$$
>  <MOLECULE>
CN=c1ccc2nc3ccc(N)cc3sc-2c1

>  <GI50>
1.12 µM

$$$$
>  <MOLECULE>
CO/N=C(/C)c1ccc(NC(=O)CSc2nnc(-c3ccncc3)n2-c2ccccc2)cc1

>  <GI50>
> 100 µM

$$$$
>  <MOLECULE>
O=C1CCC(N2Cc3cc(CNC(=O)C(F)(F)c4ccc(Cl)cc4)ccc3C2=O)C(=O)N1 (stereo not given)

>  <GI50>
> 96.3 µM

$$$$

###

# Test system: SR leukemia
# PROCEDURE_TEXT: NCI tumour cell line growth inhibition, 48 h
REPORTED_PROPERTY: TGI

>  <COMPOUND>
CC1(C)C=Cc2c(cc(O)c3c(=O)c4cc(Cl)ccc4[nH]c23)O1

>  <SYSTEM_UNDER_TEST>
SR leukemia

>  <ASSAY_VALUE>
> 10 µM

$$$$
>  <COMPOUND>
Cc1c(/C=N/N=C/c2[nH]c(C(=O)OC(C)(C)C)c(C)c2C)[nH]c(C(=O)OC(C)(C)C)c1C

>  <SYSTEM_UNDER_TEST>
SR leukemia

>  <ASSAY_VALUE>
> 100 µM

$$$$
>  <COMPOUND>
O=C(NC1CCCCC1NC(c1ccccc1)(c1ccccc1)c1ccccc1)C(=O)NC1CCCCC1NC(c1ccccc1)(c1ccccc1)c1ccccc1 (centres undefined)

>  <SYSTEM_UNDER_TEST>
SR leukemia

>  <ASSAY_VALUE>
> 100 µM

$$$$
>  <COMPOUND>
COc1ccc(C2SCC(=O)N2c2ccc(-c3ccc(-n4c(-c5ccccc5)nc5ccccc5c4=O)cc3)cc2)cc1OC (centres undefined)

>  <SYSTEM_UNDER_TEST>
SR leukemia

>  <ASSAY_VALUE>
> 100 µM

$$$$

###

# Test system: SK-MEL-5 melanoma
# PROCEDURE_TEXT: NCI tumour cell line growth inhibition, 48 h
REPORTED_PROPERTY: TGI

>  <MOLECULE>
O=C1OCC2=C1C(c1ccc(Cl)c(Cl)c1)c1cc3c(cc1N2CCO)OCCO3 (stereo not given)

>  <ASSAY_VALUE>
6.37 µM

$$$$
>  <MOLECULE>
COc1c(F)c(F)c(/C(O)=C\c2nc3ccccc3[nH]c2=O)c(F)c1F

>  <ASSAY_VALUE>
> 10 µM

$$$$
>  <MOLECULE>
CC(=O)OC12C=C(C)C(C(C)C1)C1C(=O)N(CCN3CCOCC3)C(=O)C12 (stereo not given)

>  <ASSAY_VALUE>
> 100 µM

$$$$
>  <MOLECULE>
FC(F)(F)c1ccc(-c2cnc(-c3ncon3)nc2NC2CCCCCC2)cc1

>  <ASSAY_VALUE>
> 100 µM

$$$$
>  <MOLECULE>
CN(C)c1ccc(NN=C2SC(=Nc3ccccc3)C(=Nc3ccccc3)S2)cc1

>  <ASSAY_VALUE>
> 100 µM

$$$$
>  <MOLECULE>
CCCN(CCS(C)(=O)=O)Cc1ccc(-c2ccc3ncnc(Nc4ccc(OCc5cccc(F)c5)c(Cl)c4)c3c2)o1

>  <ASSAY_VALUE>
> 25 µM

$$$$
>  <MOLECULE>
O=C(NC1CCCCC1NC(c1ccccc1)(c1ccccc1)c1ccccc1)C(=O)NC1CCCCC1NC(c1ccccc1)(c1ccccc1)c1ccccc1 (stereo not given)

>  <ASSAY_VALUE>
> 100 µM

$$$$
>  <MOLECULE>
CC(=O)C1C(=O)C(=O)N(c2cccc([N+](=O)[O-])c2)C1=O (stereo not given)

>  <ASSAY_VALUE>
> 100 µM

$$$$
>  <MOLECULE>
CC(C)(C)OC(=O)NC(Cc1ccccc1)OCc1ccccc1 (stereo not given)

>  <ASSAY_VALUE>
31 µM

$$$$
>  <MOLECULE>
C[N+](C)(C)CCc1ccccc1

>  <ASSAY_VALUE>
> 100 µM

$$$$
